Procedure text: yeast display, Sf9 membrane polyspecificity reagent, FACS + sequencing; frameworks hold sequencing errors

# Sequence code, polyreactivity (PSR sort gate)
rows = [
    ("QVQLVESGGGLVQAGGSLSLTCAASVLTLTGYPMGWYRPAPGKERELVAAISSRGGSTYYADSVKGRFTISRDNAKNTVYLQMNSLKREDTAFYYCDARASSGARGLDYWGQGTQVTVSS", "high polyreactivity"),
    ("QVQLVESGGGLVHAGGSLRLSCAASGSTLQVYAMGWYREAPGIERELVAVITFSGGRTYYADSVKGRFTISRDTAKNTVYLQMNSLKPEDTADYYPAARYYWGQGTQVTVSS", "high polyreactivity"),
]
